Each recorded value in this set is attributed to patent EP4737454A1.

Molecular target: Human GLP-1R (Homo sapiens)
Experiment: cAMP level determination in human GLP-1R stably transfected HEK293T cells (HTRF cAMP kit)
Details: 37°C 30 min
result.type: EC50 (µM)

- compound: "Cc1cc(-n2nc3c(c2-n2ccn(-c4ccc(C(=O)N(C(C)C)C5CC5)cc4)c2=O)[C@H](C)N(C(=O)c2cc4cc(C5CCOC(C)(C)C5)ccc4n2[C@@]2(c4nc(=O)o[nH]4)C[C@@H]2C)CC3)cc(C)c1F (stereo partly shown)"
  result.type: "EC50"
  experimental.result: 0.0118
- compound: "Cc1cc(-n2nc3c(c2-n2ccn(-c4ccc(C#N)nc4)c2=O)[C@H](C)N(C(=O)c2cc4cc(C5CCOC(C)(C)C5)ccc4n2[C@@]2(c4nc(=O)o[nH]4)C[C@@H]2C)CC3)cc(C)c1F (stereo partly shown)"
  result.type: "EC50"
  experimental.result: 0.0384
- compound: "Cc1cc(-n2nc3c(c2-n2ccn(-c4ccc5c(c4)CCN(C4CC4)C5=O)c2=O)[C@H](C)N(C(=O)c2cc4cc(C5CCOC(C)(C)C5)ccc4n2[C@@]2(c4nc(=O)o[nH]4)C[C@@H]2C)CC3)cc(C)c1F (stereo partly shown)"
  result.type: "EC50"
  experimental.result: 0.00807
- compound: "Cc1cc(-n2nc3c(c2-n2ccn(-c4ccc(N(C)C5CC5)c(OC(F)(F)F)c4)c2=O)[C@H](C)N(C(=O)c2cc4cc(C5CCOC(C)(C)C5)ccc4n2[C@@]2(c4noc(=O)[nH]4)C[C@@H]2C)CC3)cc(C)c1F (stereo partly shown)"
  result.type: "EC50"
  experimental.result: 0.0678

----------
Molecular target: Human GLP-1R (Homo sapiens)
Assay: cAMP level determination in human GLP-1R stably transfected HEK293T cells (HTRF cAMP kit)
Details: 37°C 30 min
Protocol: Human GLP-1R HEK293T stably transfected cells were digested with trypsin, terminated with DMEM total (without p/s), centrifuged and washed twice with 1X Stimulation buffer, then resuspended in 1X stimulation buffer and counted. The cells were then prepared as a 1 Million/mL cell suspension in stimulation buffer. […] Stimulation% was calculated based on Min and Max readings (665nm/615nm ratio) using the formula: 100*(ratio Max well - ratio test well)/(ratio Max well - ratio Min well). […]
Entries annotated with measured log10(EC50)
result.type: log10(EC50) (log10 of the value in nM)

- molecule: "Cc1cc(-n2nc3c(c2-n2ccn(-c4ccc(N(C)C(=O)C5CC5)c(C(F)(F)F)c4)c2=O)[C@H](C)N(C(=O)c2cc4cc([C@H]5CCOC(C)(C)C5)ccc4n2[C@@]2(c4nc(=O)o[nH]4)C[C@@H]2C)CC3)cc(C)c1F [Compound 74]"
  log10(EC50): 0.51
- molecule: "Cc1cc(-n2nc3c(c2-n2ccn(-c4ccc(N(C)C(=O)C5CC5)c(Cl)c4F)c2=O)[C@H](C)N(C(=O)c2cc4cc([C@H]5CCOC(C)(C)C5)ccc4n2[C@@]2(c4nc(=O)o[nH]4)C[C@@H]2C)CC3)cc(C)c1F [Compound 73]"
  log10(EC50): 0.80
- molecule: "Cc1cc(-n2nc3c(c2-n2ccn(-c4ccc(C(=O)N(C)C5CC5)c(Cl)c4F)c2=O)[C@H](C)N(C(=O)c2cc4cc([C@H]5CCOC(C)(C)C5)ccc4n2[C@@]2(c4nc(=O)o[nH]4)C[C@@H]2C)CC3)cc(C)c1F [Compound 7]"
  log10(EC50): 0.79
- molecule: "Cc1cc(-n2nc3c(c2-n2ccn(-c4cc(F)c(C(=O)N(C)C5CC5)c(F)c4)c2=O)[C@H](C)N(C(=O)c2cc4cc(C5CCOC(C)(C)C5)ccc4n2[C@@]2(c4nc(=O)o[nH]4)C[C@@H]2C)CC3)cc(C)c1F (stereo partly drawn) [Compound 52]"
  log10(EC50): 1.04
- molecule: "C[C@H]1c2c(nn(-c3ccc(F)c(OC(F)(F)F)c3)c2-n2ccn(-c3ccc4c(cnn4C)c3F)c2=O)CCN1C(=O)c1cc2cc(C3CCOC(C)(C)C3)ccc2n1[C@@]1(c2nc(=O)o[nH]2)C[C@@H]1C (stereo partly drawn) [Compound 4]"
  log10(EC50): 1.54
- molecule: "Cc1cc(-n2nc3c(c2-n2ccn(-c4ccc(N(C)C5CC5)c(F)c4)c2=O)[C@H](C)N(C(=O)c2cc4cc(C5CCOC(C)(C)C5)ccc4n2[C@@]2(c4noc(=O)[nH]4)C[C@@H]2C)CC3)cc(C)c1F (stereo partly drawn) [Compound 68]"
  log10(EC50): 1.26
- molecule: "Cc1cc(-n2nc3c(c2-n2ccn(-c4ccc(C#N)c(Cl)c4F)c2=O)[C@H](C)N(C(=O)c2cc4cc(C5CCOC(C)(C)C5)ccc4n2[C@@]2(c4nc(=O)o[nH]4)C[C@@H]2C)CC3)cc(C)c1F (stereo partly drawn) [Compound 97]"
  log10(EC50): 0.89
- molecule: "Cc1cc(-n2nc3c(c2-n2ccn(-c4cnc(C(=O)N(C)C5CC5)nc4)c2=O)[C@H](C)N(C(=O)c2cc4cc(C5CCOC(C)(C)C5)ccc4n2[C@@]2(c4nc(=O)o[nH]4)C[C@@H]2C)CC3)cc(C)c1F (stereo partly drawn) [Compound 32]"
  log10(EC50): 1.90
- molecule: "Cc1cc(-n2nc3c(c2-n2ccn(-c4ccc(C(=O)N(C)CC#N)cc4)c2=O)[C@H](C)N(C(=O)c2cc4cc(C5CCOC(C)(C)C5)ccc4n2[C@@]2(c4nc(=O)o[nH]4)C[C@@H]2C)CC3)cc(C)c1F (stereo partly drawn) [Compound 44]"
  log10(EC50): 1.23

----------
Molecular target: Human GLP-1R (Homo sapiens, UniProt P43220)
Sequence (P43220 24-463): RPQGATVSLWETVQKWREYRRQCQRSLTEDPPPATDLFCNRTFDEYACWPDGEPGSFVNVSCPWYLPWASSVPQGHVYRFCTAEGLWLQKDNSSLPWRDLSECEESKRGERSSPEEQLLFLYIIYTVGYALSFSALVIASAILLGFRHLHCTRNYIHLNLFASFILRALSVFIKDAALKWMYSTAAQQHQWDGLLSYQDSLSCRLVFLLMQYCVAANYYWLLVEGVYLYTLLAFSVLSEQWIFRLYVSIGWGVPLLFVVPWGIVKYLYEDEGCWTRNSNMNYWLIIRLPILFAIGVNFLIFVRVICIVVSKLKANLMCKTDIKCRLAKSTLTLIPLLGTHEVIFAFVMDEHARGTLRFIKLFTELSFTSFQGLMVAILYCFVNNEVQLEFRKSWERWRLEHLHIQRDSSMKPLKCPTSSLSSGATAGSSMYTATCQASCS
Experiment: cAMP level determination in human GLP-1R stably transfected HEK293T cells (HTRF cAMP kit)
Settings: 37°C 30 min
One threshold, 7 nM, splits the recorded EC50 values: lower ones are Met, equal or higher ones are Not met.

- molecule: "Cc1cc(-n2nc3c(c2-n2ccn(-c4ccc(C(F)(F)F)c(C#N)c4)c2=O)[C@H](C)N(C(=O)c2cc4cc(C5CCOC(C)(C)C5)ccc4n2[C@@]2(c4nc(=O)o[nH]4)C[C@@H]2C)CC3)cc(C)c1F (stereo partly drawn)"
  label.class: "Not met"
- molecule: "Cc1cc(-n2nc3c(c2-n2ccn(-c4cccc(C(=O)NC5CC5)c4)c2=O)[C@H](C)N(C(=O)c2cc4cc(C5CCOC(C)(C)C5)ccc4n2[C@@]2(c4nc(=O)o[nH]4)C[C@@H]2C)CC3)cc(C)c1F (stereo partly drawn)"
  label.class: "Not met"
- molecule: "Cc1cc(-n2nc3c(c2-n2ccn(-c4ccc5c(c4F)CCS5(=O)=O)c2=O)[C@H](C)N(C(=O)c2cc4cc(C5CCOC(C)(C)C5)ccc4n2[C@@]2(c4nc(=O)o[nH]4)C[C@@H]2C)CC3)cc(C)c1F (stereo partly drawn)"
  label.class: "Not met"
- molecule: "CCc1cc(-n2ccn(-c3c4c(nn3-c3cc(C)c(F)c(C)c3)CCN(C(=O)c3cc5cc([C@H]6CCOC(C)(C)C6)ccc5n3[C@@]3(c5nc(=O)o[nH]5)C[C@@H]3C)[C@H]4C)c2=O)ccc1C(=O)N(C)C1CC1"
  label.class: "Met"
- molecule: "Cc1cc(-n2nc3c(c2-n2ccn(-c4ccc(C(=O)N(C)C5CC5)c(Cl)c4)c2=O)[C@H](C)N(C(=O)c2cc4cc([C@H]5CCOC(C)(C)C5)ccc4n2[C@@]2(c4nc(=O)o[nH]4)C[C@@H]2C)CC3)cc(C)c1F"
  label.class: "Met"
- molecule: "Cc1cc(-n2ccn(-c3c4c(nn3-c3cc(C)c(F)c(C)c3)CCN(C(=O)c3cc5cc(C6CCOC(C)(C)C6)ccc5n3[C@@]3(c5nc(=O)o[nH]5)C[C@@H]3C)[C@H]4C)c2=O)ccc1C(=O)N(C)C1(C)CC1 (stereo partly drawn)"
  label.class: "Not met"
- molecule: "Cc1cc(-n2nc3c(c2-n2ccn(-c4ccc(C(=O)N(C)C5(C)CC5)c(OC(F)(F)F)c4)c2=O)[C@H](C)N(C(=O)c2cc4cc(C5CCOC(C)(C)C5)ccc4n2[C@@]2(c4nc(=O)o[nH]4)C[C@@H]2C)CC3)cc(C)c1F (stereo partly drawn)"
  label.class: "Not met"
- molecule: "Cc1cc(-n2nc3c(c2-n2ccn(-c4ccc(C(=O)N(C)C5CCC5)cc4)c2=O)[C@H](C)N(C(=O)c2cc4cc(C5CCOC(C)(C)C5)ccc4n2[C@@]2(c4nc(=O)o[nH]4)C[C@@H]2C)CC3)cc(C)c1F (stereo partly drawn)"
  label.class: "Not met"
- molecule: "Cc1cc(-n2nc3c(c2-n2ccn(-c4ccc(N(C)C(=O)C5(C(F)(F)F)CC5)cc4)c2=O)[C@H](C)N(C(=O)c2cc4cc(C5CCOC(C)(C)C5)ccc4n2[C@@]2(c4noc(=O)[nH]4)C[C@@H]2C)CC3)cc(C)c1F (stereo partly drawn)"
  label.class: "Not met"
